Values from ChEMBL document CHEMBL1201862

Here, each record is paired with measured GI50 data.
System: TK-10
Test: NCI tumour cell line growth inhibition, 48 h
Activity calls are given as the source filed them. No stated cut-off is given here; in the data, active = GI50 up to about 1.1 µM and inactive = higher.

COMPOUND	ASSAYED_TARGET	MEASUREMENT_NAME	RESULT
O/N=C/c1cc2c(cc1Br)OCO2	TK-10	GI50	> 100 µM (inactive)
Clc1ccc(NCNC2Nc3ccccc3N2)cc1Cl	TK-10	GI50	55.6 µM (inactive)
CCCCCCN(C(=O)Oc1ccccc1)C(C#N)c1ccccc1 (stereo unspecified)	TK-10	GI50	> 100 µM (inactive)
Cc1ccc(S(=O)(=O)NNS(C)(=O)=O)cc1	TK-10	GI50	> 100 µM (inactive)
c1cc(CSSCc2ccncc2)ccn1	TK-10	GI50	13.8 µM (inactive)
CCOC(=O)c1cc(NC(=O)N(CCC#N)CCN(C(=O)N[C@@H](Cc2ccccc2)C(=O)N[C@@H](CC(C)C)C(=O)NC)c2ccccc2)ccc1OC	TK-10	GI50	46.5 µM (inactive)

Prompt line: Which GI50 is reported with TK-10 for this entry: COc1cc(C2C(Cl)C(=O)N2NC(=O)c2ccccc2O)cc(OC)c1OC (stereo unspecified) ?
Response line: 8.51 µM (inactive)

Prompt line: Which GI50 is reported with TK-10 for this entry: O=C(O)CCCSc1nc2ccccc2s1 ?
Response line: > 100 µM (inactive)

Prompt line: Which GI50 is reported with TK-10 for this entry: COc1cc(/C=C(\C)[N+](=O)[O-])cc(OC)c1 ?
Response line: 11.8 µM (inactive)

Prompt line: Which GI50 is reported with TK-10 for this entry: CN(C)C(=S)OC(Cn1cncn1)c1ccc(Cl)cc1Cl (stereo unspecified) ?
Response line: > 100 µM (inactive)

Prompt line: Which GI50 is reported with TK-10 for this entry: Cc1cc(N(CCC#N)CCC#N)ccc1C(/N=N/c1ccc(Cl)cc1)=N\NC(=O)c1cc(Cl)ccc1O ?
Response line: 30 µM (inactive)
